Data origin, for the record: patent US20240199745A1

target entity: human EGFR (huEGFR) over-expressed on mcl-1-/- mouse embryonic fibroblasts (human, UniProt P00533 25-1210)
assay notes: cell-based or functional assay
// reported huEGFR+ mcl-1-/- MEF EC50 per item
readout label: huEGFR+ mcl-1-/- MEF EC50 (nM)

# binder, readout label, measured
data = [
    ("AbA-WD (antibody, human IgG1, kappa, V domains shown, synthon WD on reduced interchain cysteines; average DAR 1.8 per ADC) VH: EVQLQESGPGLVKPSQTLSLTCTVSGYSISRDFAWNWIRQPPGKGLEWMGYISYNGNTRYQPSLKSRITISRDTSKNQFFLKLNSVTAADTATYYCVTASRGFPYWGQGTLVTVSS VL: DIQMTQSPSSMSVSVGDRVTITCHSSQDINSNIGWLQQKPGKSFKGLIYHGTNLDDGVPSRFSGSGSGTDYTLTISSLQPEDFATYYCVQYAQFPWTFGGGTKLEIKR", "huEGFR+ mcl-1-/- MEF EC50", 304),
    ("AbA-TV (antibody, human IgG1, kappa, V domains shown, synthon TV on reduced interchain cysteines; average DAR 3.7 per ADC) VH: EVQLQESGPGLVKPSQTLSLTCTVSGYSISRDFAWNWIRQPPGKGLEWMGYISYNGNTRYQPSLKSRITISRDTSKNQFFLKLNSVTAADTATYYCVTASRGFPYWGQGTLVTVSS VL: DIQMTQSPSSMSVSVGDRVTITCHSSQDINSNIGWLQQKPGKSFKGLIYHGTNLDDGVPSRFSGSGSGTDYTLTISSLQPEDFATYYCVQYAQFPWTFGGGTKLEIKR", "huEGFR+ mcl-1-/- MEF EC50", 3),
    ("AbA-YG (antibody, human IgG1, kappa, V domains shown, synthon YG on reduced interchain cysteines; average DAR 1.9 per ADC) VH: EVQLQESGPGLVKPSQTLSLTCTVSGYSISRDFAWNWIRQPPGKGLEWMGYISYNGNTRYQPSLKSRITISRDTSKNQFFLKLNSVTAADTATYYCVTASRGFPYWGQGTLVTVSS VL: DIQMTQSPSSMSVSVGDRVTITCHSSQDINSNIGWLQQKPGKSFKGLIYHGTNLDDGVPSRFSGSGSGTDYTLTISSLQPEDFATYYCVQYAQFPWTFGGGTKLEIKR", "huEGFR+ mcl-1-/- MEF EC50", 6.4),
]
